system: HepaRG; experiment: LDH release cytotoxicity, % of total lysis control; higher = more cytotoxic; conditions: 0.1 µM; 48 h
readout kind: LDH release cytotoxicity (%)

>>> recorded_number("CC(=O)C1(O)CCC2C3CCC4=CC(=O)CCC4(C)C3CCC21C (stereo not drawn) [17alpha-Hydroxyprogesterone]")
-1.4
>>> recorded_number("CC(C)N1C(=O)c2ccccc2NS1(=O)=O")
-0.547
>>> recorded_number("CN1COCN(Cc2cnc(Cl)s2)C1=N[N+](=O)[O-]")
-1.13
>>> recorded_number("O=S1OCC2C(CO1)C1(Cl)C(Cl)=C(Cl)C2(Cl)C1(Cl)Cl (stereo not given) [Endosulfan]")
-0.361
>>> recorded_number("CCC(C)N1C(=O)N=C(C)C(Br)C1=O (stereo not given)")
-3.85
>>> recorded_number("C[N+](C)(C)CC1CO1 (stereo not given) [Glycidyl trimethylammonium chloride]")
-0.64
>>> recorded_number("O=C(O)C(Cl)(Cl)Cl [Sodium trichloroacetate]")
-0.518
>>> recorded_number("CCOP(=S)(OCC)SCSCC [Phorate]")
-2.54
>>> recorded_number("ClC1=C(Cl)C2(Cl)C3C4C=CC(C4)C3C1(Cl)C2(Cl)Cl (stereo not given)")
-1.22
>>> recorded_number("Nc1cc2c3c(c1)C(c1ccccc1)=NC(NC(=O)c1cccnc1)C(=O)N3CC2 (stereo not given)")
-0.234
>>> recorded_number("O=C(O)C(Cl)Cl")
-1.93
>>> recorded_number("CCCCOC(=O)c1ccc(O)cc1")
-1.1
>>> recorded_number("CCN(CC)CCNc1ccc(CNC=O)c2sc3ccc(OC)cc3c(=O)c12")
-1.66
>>> recorded_number("O=S(=O)(O)C(F)(F)C(F)(F)C(F)(F)C(F)(F)C(F)(F)C(F)(F)F [Potassium perfluorohexanesulfonate]")
-1.15
>>> recorded_number("CCCN(CCC)N=O")
-0.576
>>> recorded_number("c1ccc2occc2c1")
-1.07
>>> recorded_number("CCCCCCCCCCCC(=O)OC [Methyl dodecanoate]")
-1.07
>>> recorded_number("COc1ccc([N+](=O)[O-])cc1N")
-1.94
>>> recorded_number("O=C(O)C1(C(=O)Nc2ccc(Cl)cc2Cl)CC1 [Cyclanilide]")
-0.444
>>> recorded_number("O=CCCCC=O")
-1.62
>>> recorded_number("CON=C(C(=O)OC)c1ccccc1CON=C(C)c1cccc(C(F)(F)F)c1")
-0.478
>>> recorded_number("CCCCCCCCC(=O)O")
-1.24
>>> recorded_number("CCNc1nc(Cl)nc(NCC)n1")
-1.85
>>> recorded_number("CCc1ccc(O)c(C(C)(C)C)c1")
-1.23
>>> recorded_number("CC(=O)N1CCN(c2ccc(OCC3COC(Cn4ccnc4)(c4ccc(Cl)cc4Cl)O3)cc2)CC1 (stereo not given)")
-3.11
>>> recorded_number("ClCC(Cl)CCl")
-1.57
>>> recorded_number("CCCCC(CC)COC(=O)CC(C(=O)OCC(CC)CCCC)S(=O)(=O)O (stereo not given) [Docusate sodium]")
-0.373
>>> recorded_number("N#Cc1c[nH]cc1-c1cccc2c1OC(F)(F)O2")
-1.69
>>> recorded_number("COP(=S)(OC)Oc1ccc(SC)c(C)c1")
-0.733
>>> recorded_number("Oc1ccc2ccccc2c1")
-0.55
>>> recorded_number("CCOP(=O)(SC(C)CC)N1CCSC1=O (stereo not given) [Fosthiazate]")
-0.335
>>> recorded_number("COc1ccc(O)c(C(C)(C)C)c1")
-1.18
>>> recorded_number("Cc1cc(C2CC2)nc(Nc2ccccc2)n1")
-0.753
>>> recorded_number("Cc1ccccc1N")
-0.736
>>> recorded_number("CCC(=O)OC1CCC2C3CCC4=CC(=O)CCC4(C)C3CCC12C (stereo not given) [Testosterone propionate]")
-0.545
>>> recorded_number("CC(C)(C)OOC(C)(C)CCC(C)(C)OOC(C)(C)C")
-0.939
>>> recorded_number("COc1cc(S(=O)(=O)O)c(C)cc1N=Nc1c(O)ccc2cc(S(=O)(=O)O)ccc12")
-0.495
>>> recorded_number("ClC1C(Cl)C(Cl)C(Cl)C(Cl)C1Cl (stereo not given)")
-0.605
>>> recorded_number("c1ccc2cc3ccccc3cc2c1")
-2.92
>>> recorded_number("CC(C)(c1cc(Br)c(O)c(Br)c1)c1cc(Br)c(O)c(Br)c1")
-1.08

Source listed as the supplement of paper PMC7840683.
